B1: CCDC6 (parent)
chain: FTPPTSLTRAGMSYYNSPGLHVQH

# Variants of: B1
# PROCEDURE_DETAILS: protein stability index of a GFP-peptide fusion (GPS, HEK-293T) (PSI 1-6); higher = more stable;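 also: lentivirally expressed fusions sorted by FACS into six bins by GFP to DsRed ratio, PSI derived from sequencing read proportions per bin multiplied by bin number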
# EXPERIMENTAL_CONTEXT: c terminus: a fixed tail appended
In this section we review reported protein stability index values for a set of variants.
Respond numerically, and do not add a unit to the figure.

Noted for `T5R` : its protein stability index reads 1.96
